Assay: RPMI8226 myeloma cell viability, profiling panel, resazurin fluorescence, basal, 24 h, PK04 Diversity Set (AID 1180);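 further: RPMI8826 multiple myeloma cell line at 5000 cells per well; test concentration not given here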
Settings: higher = more signal
Classify as follows. Reported z-score greater than or equal to 0.2: satisfied. Reported z-score below: not satisfied.

Does the compound CN1C(=O)C2C(C1=O)C1C=C(CCCO)C2C(c2cccs2)N1Cc1cc2c(cc1Br)OCO2 (centres undefined) have recorded z-score that is 0.2 or more?
not satisfied

Proceed to "CC(C)CNC(=O)[C@@]1(c2ccc([N+](=O)[O-])cc2)CC(=O)N(C2CCCCC2)[C@@H]1c1ccc(CO)cc1"
satisfied

Proceed to CC1CC/C=C\[C@H]2OC34C=CCN(C(C)(C)C)C(=O)[C@H]3N(C(CO)C(C)C)C(=O)[C@@H]4C2C(=O)O1 (some centres undefined)
not satisfied

Proceed to "O=C1C[C@@](C(=O)NCc2ccccc2)(c2ccc([N+](=O)[O-])cc2)[C@@H](c2ccc(CO)cc2I)N1CC12CC3CC(CC(C3)C1)C2"
not satisfied

Proceed to "CCCCNC(=O)c1ccc(C#C[Si](C(C)C)(C(C)C)C(C)C)c(OC(C)=O)c1"
satisfied

Proceed to "C=C[C@@H](OC)[C@H](OC(=O)Nc1ccc(SC)cc1)c1ccc(OCCO)cc1"
not satisfied

Proceed to "C=C[C@H](C)[C@H](OC(=O)Nc1ccc(OC)cc1)c1ccc(OCCO)cc1"
satisfied

Proceed to "CCOC(=O)C1=CC[C@@H](c2ccccc2)N(S(=O)(=O)c2ccc(C)cc2)[C@H]1c1cccc(OC)c1"
not satisfied

Proceed to "CN(C)C(=O)[C@@]1(CCC(=O)OC(C)(C)C)N=C(c2ccc(OCCCO)cc2)O[C@H]1c1ccccc1CN=[N+]=[N-]"
satisfied

Where these numbers come from: PubChem BioAssay
